# protocol-notes: qHTS of pediatric cancer cell lines to identify multiple opportunities for drug repurposing: Confirmatory screen for Rh30 cells (AID 1347126); also: nearly all actives have a fitted effect of over 55% in size
# measurement-conditions: Rh30 rhabdomyosarcoma cell viability; series mostly up to 45.9 µM
Inconclusive results are not listed. Activity calls are given as the source filed them. Calls follow the shape of the dose curve; as a rule, active = well fitted cell-killing curve with a large enough effect; inconclusive = small, poorly fitted or top-dose-only effect, or effect the other way; inactive = no such curve, though single readings can be large or run the other way.
Labels: true for active, false for inactive

{"molecule": "CC=C1NC(=O)[C@H]2CSSCCC=C[C@H](CC(=O)N[C@H](C(C)C)C(=O)N2)OC(=O)[C@H](C(C)C)NC1=O", "assigned-label": "false"}
{"molecule": "COC(=O)Nc1nc2ccc(C(=O)c3ccc(F)cc3)cc2[nH]1", "assigned-label": "false"}
{"molecule": "Cc1ccc(-c2ncn(-c3ccc(Nc4nccc(-c5cccc(N6CCOCC6)c5)n4)cc3)n2)cn1", "assigned-label": "true"}
{"molecule": "C=CC(=O)Nc1cc2c(Nc3ccc(F)c(Cl)c3)ncnc2cc1C#CC(C)(C)N1CCN(C)CC1", "assigned-label": "true"}
{"molecule": "Cc1nc2cnc3ccc(C#Cc4cccnc4)cc3c2n1-c1ccc(C(C)(C)C#N)cc1", "assigned-label": "true"}
{"molecule": "CN[C@H]1CCc2cc(OC)c(OC)c(OC)c2-c2ccc(OC)c(=O)cc21", "assigned-label": "false"}
{"molecule": "CCC(=C(c1ccccc1)c1ccc(OCCN(C)C)cc1)c1ccccc1", "assigned-label": "false"}
{"molecule": "COCCn1c2c([n+](Cc3cnccn3)c1C)C(=O)c1ccccc1C2=O", "assigned-label": "false"}
{"molecule": "Cc1ccc(C(=O)Nc2ccc(CN3CCN(C)CC3)c(C(F)(F)F)c2)cc1C#Cc1cnc2cccnn12", "assigned-label": "true"}
{"molecule": "Cc1ccc2nc(NC(=O)CSc3nc4c(c(=O)n3-c3ccccc3)SCC4)sc2c1", "assigned-label": "false"}
{"molecule": "CC(C)(C)OC(=O)Nc1ccc(-c2cc(C(=O)NCCCCCCC(=O)NO)no2)cc1", "assigned-label": "true"}
{"molecule": "CC(=O)OCC(=O)[C@@]1(O)[C@H](C)C[C@H]2[C@@H]3C=C(C)C4=Cc5c(cnn5-c5ccccc5)C[C@]4(C)[C@@H]3[C@@H](O)C[C@@]21C", "assigned-label": "true"}
{"molecule": "Cc1cn2c(-c3cn[nH]c3)cnc2c(Nc2ccc(C(=O)N3CCNCC3)cc2F)n1", "assigned-label": "true"}
{"molecule": "O=C(Cc1ccc(-c2ccc(OCCN3CCOCC3)cc2)cn1)NCc1ccccc1", "assigned-label": "false"}
{"molecule": "CN1CC[C@@H](c2c(O)cc(O)c3c(=O)cc(-c4ccccc4Cl)oc23)[C@@H](O)C1", "assigned-label": "true"}
{"molecule": "CC(C)[C@H](C(=O)Nc1ccc(C(=O)NO)cc1)c1ccccc1", "assigned-label": "true"}
{"molecule": "COC(=O)[C@]12CCC(C)(C)C[C@@H]1[C@@H]1C(=O)C=C3[C@@]4(C)C=C(C#N)C(=O)C(C)(C)[C@@H]4CC[C@@]3(C)[C@]1(C)CC2", "assigned-label": "true"}
{"molecule": "COc1cccc2c(NCc3ccccc3)nc(-n3c(N)nc4ccccc43)nc12", "assigned-label": "true"}
{"molecule": "COc1cc(Nc2ncc(F)c(Nc3ccc4c(n3)N(COP(=O)(O)O)C(=O)C(C)(C)O4)n2)cc(OC)c1OC", "assigned-label": "true"}
{"molecule": "Cc1nc(N)ncc1-c1nc(N2CCOCC2)c2sc(C(C)(C)O)cc2n1", "assigned-label": "true"}
{"molecule": "COc1cccc(-c2ccc(NC(=O)C3=C(C(=O)O)CCC3)c(F)c2)c1", "assigned-label": "true"}
{"molecule": "CCc1c2c(nc3ccc(O)cc13)-c1cc3c(c(=O)n1C2)COC(=O)[C@]3(O)CC", "assigned-label": "true"}
{"molecule": "O=C(Nc1cn[nH]c1-c1nc2ccc(CN3CCOCC3)cc2[nH]1)NC1CC1", "assigned-label": "false"}
{"molecule": "CC1(C)O[C@@H]2C[C@@H]3[C@H]4C[C@@H](F)C5=CC(=O)C=C[C@]5(C)[C@@]4(F)[C@@H](O)C[C@]3(C)[C@]2(C(=O)CO)O1", "assigned-label": "false"}
{"molecule": "O=C(C=Cc1cccc(S(=O)(=O)Nc2ccccc2)c1)NO", "assigned-label": "true"}
{"molecule": "COc1ccc(-n2nc(C(N)=O)c3c2C(=O)N(c2ccc(N4CCCCC4=O)cc2)CC3)cc1", "assigned-label": "true"}
{"molecule": "O=c1[nH]nc(Sc2ncc([N+](=O)[O-])s2)n1-c1ccc2c(c1)OCCO2", "assigned-label": "true"}
{"molecule": "CC=CC1=C(C(=O)O)N2C(=O)[C@H](NC(=O)[C@H](N)c3ccc(O)cc3)[C@@H]2SC1", "assigned-label": "false"}
{"molecule": "Nc1ccccc1NC(=O)c1ccc(CNC(=O)OCc2cccnc2)cc1", "assigned-label": "true"}
{"molecule": "O=C(O)c1ccc2cc(-c3ccc(O)c(C45CC6CC(CC(C6)C4)C5)c3)ccc2c1", "assigned-label": "true"}
{"molecule": "Nc1ncnc2c1c(-c1cnc3[nH]ccc3c1)nn2C1CCCC1", "assigned-label": "true"}
{"molecule": "CCn1nnc2c(N3CCOCC3)nc(-c3ccc(NC(=O)Nc4ccc(C(=O)N5CCN(C)CC5)cc4)cc3)nc21", "assigned-label": "true"}
{"molecule": "C[C@@H](Oc1cc(-n2cnc3ccc(CN4CCN(C)CC4)cc32)sc1C(N)=O)c1ccccc1C(F)(F)F", "assigned-label": "true"}
{"molecule": "COc1ccc(C=Cc2cc(OC)c(OC)c(OC)c2)cc1O", "assigned-label": "false"}
{"molecule": "COc1cc2c(Oc3ccc(-c4cnc(Nc5ccc(F)cc5)n(C)c4=O)cc3F)ccnc2cc1OCCCN1CCOCC1", "assigned-label": "true"}
{"molecule": "CC(NCc1ccc2c(c1)nc(NC(=O)c1ccc(-c3cn[nH]c3)s1)n2CC(C)(C)O)C(C)(C)C (stereo unspecified)", "assigned-label": "true"}
